Biological target: 5'-nucleotidase (Rattus norvegicus, UniProt P21588)
Sequence (P21588 whole entry): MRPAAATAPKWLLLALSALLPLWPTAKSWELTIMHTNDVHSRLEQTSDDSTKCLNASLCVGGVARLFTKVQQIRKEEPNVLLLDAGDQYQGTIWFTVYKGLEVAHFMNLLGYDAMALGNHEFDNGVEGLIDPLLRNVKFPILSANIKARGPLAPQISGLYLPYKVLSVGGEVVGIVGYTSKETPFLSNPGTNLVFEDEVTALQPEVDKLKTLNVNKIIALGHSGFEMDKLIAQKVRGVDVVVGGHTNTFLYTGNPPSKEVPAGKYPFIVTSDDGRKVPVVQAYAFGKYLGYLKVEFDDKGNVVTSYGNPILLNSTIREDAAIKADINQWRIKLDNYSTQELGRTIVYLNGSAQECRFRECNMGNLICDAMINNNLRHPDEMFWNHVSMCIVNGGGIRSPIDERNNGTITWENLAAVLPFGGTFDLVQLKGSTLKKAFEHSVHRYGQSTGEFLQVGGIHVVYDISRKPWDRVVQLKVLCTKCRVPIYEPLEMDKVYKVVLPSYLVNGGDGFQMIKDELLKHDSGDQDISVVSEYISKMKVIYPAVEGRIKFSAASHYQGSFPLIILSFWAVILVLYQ
Experiment: Inhibition of recombinant rat ecto-5' nucleotidase expressed in COS7 cell membranes assessed as inorganic phosphate release using AMP as substrate uM preincubated for 10 mins followed by substrate addition and measured after 20 mins by malachite green dye based spectrophotometry
pIC50: −log10 of the molar value.
Listing of entries alongside the reported pIC50.
Metric Name: pIC50

Molecule	Value
CN1C(=O)C2(C(C#N)=C(N)Nc3n[nH]cc32)c2cc(F)ccc21 (stereo not drawn)	5.10
CN1C(=O)C2(C(C#N)=C(N)Nc3n[nH]cc32)c2cc(Cl)ccc21 (stereo not drawn)	6.17
Cc1[nH]nc2c1C1(C(=O)N(C)c3ccccc31)C(C#N)=C(N)N2 (stereo not drawn)	6.72
Cc1[nH]nc2c1C1(C(=O)N(C)c3ccc(Cl)cc31)C(C#N)=C(N)N2 (stereo not drawn)	5.81
Cc1[nH]nc2c1C1(C(=O)N(C)c3ccc(F)cc31)C(C#N)=C(N)N2 (stereo not drawn)	5.30
CN1C(=O)C2(C(C#N)=C(N)Nc3n[nH]cc32)c2cc(OC(F)(F)F)ccc21 (stereo not drawn)	6.28
CN1C(=O)C2(C(C#N)=C(N)Nc3n[nH]cc32)c2cc([N+](=O)[O-])ccc21 (stereo not drawn)	5.67
Cc1[nH]nc2c1C1(C(=O)N(C)c3ccc(OC(F)(F)F)cc31)C(C#N)=C(N)N2 (stereo not drawn)	5.45
